B1: HDV Ribozyme (parent)
chain: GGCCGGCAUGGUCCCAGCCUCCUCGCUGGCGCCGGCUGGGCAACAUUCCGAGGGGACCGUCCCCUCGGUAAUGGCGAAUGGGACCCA

Variants of: B1
Experiment Notes: self-cleavage, relative activity (ratio to wild type); higher = more cleavage; co-transcriptional
Parameter threshold = 0.4. Response is Satisfied when self-cleavage meets or exceeds it, else Not satisfied.

Request: Threshold query (self-cleavage >= 0.4) on GGCCGGCAUGGUCCCAGCCUCCUCGCUGGCGCCGGCUGGGCAACAUUCCGAGGGGACCGUCGCCUCGGUAAUGGCGAAGGGGACCCA [C62G U79G]
Response: Satisfied

Request: Threshold query (self-cleavage >= 0.4) on GGCCGGCAUGGUCCCAGCCUCCUCGCAGGCGCCGGCUGGGCAACAUUCCGAGGGGCCCGUCCCCUCGGUAAUGGCGAAUGGGACCCA [U27A A56C]
Response: Satisfied

Request: Threshold query (self-cleavage >= 0.4) on GGCCGGAAUGGUCCCAGCCUCCUCGCUGGCGCCGGCUGGGCUACAUUCCGAGGGGACCGUCCCCUCGGUAAUGGCGAAUGGGACCCA [C7A A42U]
Response: Not satisfied

Request: Threshold query (self-cleavage >= 0.4) on GGCCGGCAUGGUCCCAGCCUCCUCGCUGGCGCCGGCUGGGCAACCUUCCGAGGGCACCGUCCCCUCGGUAAUGGCGAAUGGGACCCA [A45C G55C]
Response: Satisfied

Request: Threshold query (self-cleavage >= 0.4) on GGCCGGCAUGGUCCCAGCCUCCUCGCUGGUGCCGGCUGGGGAACAUUCCGAGGGGACCGUCCCCUCGGUAAUGGCGAAUGGGACCCA [C30U C41G]
Response: Not satisfied

Request: Threshold query (self-cleavage >= 0.4) on GGCCGGCAUGGUCCCAGCCUCCUCGCUGGCGCCGUCUGGGCAACAUUCCGAGGGGACCGUCCCCUCGGUAAGGGCGAAUGGGACCCA [G35U U72G]
Response: Not satisfied

Request: Threshold query (self-cleavage >= 0.4) on GACCGGCAUGGUCCCAGCCUCCUCGCUGGCGCCGGCUGGGCAACAUUCCGAGGGGACCGUUCCCUCGGUAAUGGCGAAUGGGACCCA [G2A C61U]
Response: Not satisfied

Request: Threshold query (self-cleavage >= 0.4) on GGCCGGCAUGGUCCCAGCCUCCUCGCUGGCGCCGGCUGGGCACCAUUCCGAAGGGACCGUCCCCUCGGUAAUGGCGAAUGGGACCCA [A43C G52A]
Response: Satisfied

Request: Threshold query (self-cleavage >= 0.4) on GGCCGGCAUCGUCCCAGCCUCCUCGCUGGCGUCGGCUGGGCAACAUUCCGAGGGGACCGUCCCCUCGGUAAUGGCGAAUGGGACCCA [G10C C32U]
Response: Satisfied

Request: Threshold query (self-cleavage >= 0.4) on GGCCGGAAUGGUCCCAGCCUCCUCGCUGGCGCCGGCUGGGCAACAUUCCGAGGGGACCGUCCCCUCGGUAAUGGCGAAUGGGACCCC [C7A A87C]
Response: Satisfied

Request: Threshold query (self-cleavage >= 0.4) on GGCCGGCAUGGUCGCAGCCUCCUCGCUGGCGCCCGCUGGGCAACAUUCCGAGGGGACCGUCCCCUCGGUAAUGGCGAAUGGGACCCA [C14G G34C]
Response: Not satisfied

Request: Threshold query (self-cleavage >= 0.4) on GGCCGGCAUGGUCCCAGCCUCCUCGCUGGCGCCGGCUGGGCAACAUUCCGAGGGGAACGUCCCAUCGGUAAUGGCGAAUGGGACCCA [C57A C64A]
Response: Satisfied

Request: Threshold query (self-cleavage >= 0.4) on GGCCGGCAUGGUCCCAGCCUCCUAGCUGGCGCCGGCUCGGCAACAUUCCGAGGGGACCGUCCCCUCGGUAAUGGCGAAUGGGACCCA [C24A G38C]
Response: Not satisfied

Request: Threshold query (self-cleavage >= 0.4) on GGGCGUCAUGGUCCCAGCCUCCUCGCUGGCGCCGGCUGGGCAACAUUCCGAGGGGACCGUCCCCUCGGUAAUGGCGAAUGGGACCCA [C3G G6U]
Response: Not satisfied

Request: Threshold query (self-cleavage >= 0.4) on GGCCGGCAUGGACCCAGCCUCCUCGCUGGCGCCGGGUGGGCAACAUUCCGAGGGGACCGUCCCCUCGGUAAUGGCGAAUGGGACCCA [U12A C36G]
Response: Not satisfied

Request: Threshold query (self-cleavage >= 0.4) on GGCCGGCAUGGUCCCAGCCUCCUCGCUGGCGCCGGCUGGGCAACAUUCUGAGGGGACCUUCCCCUCGGUAAUGGCGAAUGGGACCCA [C49U G59U]
Response: Satisfied

Request: Threshold query (self-cleavage >= 0.4) on GGCCGGCAUGGUUCCAGCCUCCUCGCUGGCGCCGGCUGGGCAACAUUCCGAGGGGACCGUCCCCUCGGUAAUGGCGAAUGGCACCCA [C13U G82C]
Response: Not satisfied

Request: Threshold query (self-cleavage >= 0.4) on GGCCGGCAUGGUGCCAGCCUCCUCGCUGGCGCCGGCUGGGCAACAUUCCGAGGGGACCGUCCCCUCGGUAAUGGCGAAUGAGACCCA [C13G G81A]
Response: Not satisfied

Request: Threshold query (self-cleavage >= 0.4) on GGCCGGCAUGGUCCCAGCCUCCUCGCUGGCGCCGGCUGGGCAACAUUCCGAGGGGACCGUCCCCUCGGUAAGGGCGAAUGGGACUCA [U72G C85U]
Response: Satisfied

Request: Threshold query (self-cleavage >= 0.4) on GGCCGGAAUGGUCCCAGCCUCCUCGCUGGCGCCCGCUGGGCAACAUUCCGAGGGGACCGUCCCCUCGGUAAUGGCGAAUGGGACCCA [C7A G34C]
Response: Not satisfied

Request: Threshold query (self-cleavage >= 0.4) on GGCCGGCAUGGUCCCAGCCUCAUCGCUGGCGCCGGCUGGGCAACAUUCCGAGGGGAUCGUCCCCUCGGUAAUGGCGAAUGGGACCCA [C22A C57U]
Response: Not satisfied

Request: Threshold query (self-cleavage >= 0.4) on GGCCGGCAUGAUCCCAGCCUCCUCGCUGGCGCCGGCUGGGCAACAUUCCGAGGGGACCGUCCCCUCGGUAAUGGCGAAUGGGACCCA [G11A]
Response: Satisfied

Request: Threshold query (self-cleavage >= 0.4) on GGCCGGCAUGGUCCCAGCCUCCUCGCUGGCGCCGGCUGGGCAACAUUCCGAGGGGACCGUCCCCUUGGUAAUGGCUAAUGGGACCCA [C66U G76U]
Response: Satisfied

Request: Threshold query (self-cleavage >= 0.4) on GGCCGGCAUGGUCCCAGCCUCCUCGCUGGCGCCGGCUGGGCAACAUUCGGAGGGGACCGUCCCCUCGGUAAUGGCGAAUGGGACCUA [C49G C86U]
Response: Satisfied

Request: Threshold query (self-cleavage >= 0.4) on GGCCGGCAUGGUCCCAGCCUCCUCCCUGACGCCGGCUGGGCAACAUUCCGAGGGGACCGUCCCCUCGGUAAUGGCGAAUGGGACCCA [G25C G29A]
Response: Not satisfied

Request: Threshold query (self-cleavage >= 0.4) on GGCCGGCAUGGUCCCGGCCUCCUCGCUGGCGCCGGCUGGGCAACAUUCCGAGGGGACCGUCCCCUCGGUAAUGGCGAAUGGGACUCA [A16G C85U]
Response: Satisfied

Request: Threshold query (self-cleavage >= 0.4) on GGCCGGCAUGGCCCCAGCCUCCUCGCUGGCGCCGGCUGGGCAACAUUCCGAGGGGACCGUCCCCUCGGUAAUGGUGAAUGGGACCCA [U12C C75U]
Response: Not satisfied

Request: Threshold query (self-cleavage >= 0.4) on GGCCGGCAUGGUCCCAGCCUCCUCGCUGGCGCCGGCUGGGCAACAUUCCGAGGCGACCGUCCCCCCGGUAAUGGCGAAUGGGACCCA [G54C U65C]
Response: Satisfied

Request: Threshold query (self-cleavage >= 0.4) on GGCCGGCAUGGUCCCACCCUCCUCGCUGGCGCCGGCUGGGCAACAUUCCGAGUGGACCGUCCCCUCGGUAAUGGCGAAUGGGACCCA [G17C G53U]
Response: Not satisfied

Request: Threshold query (self-cleavage >= 0.4) on GGCCGGCAUGGUCCCAGCCUCCUCGCUGGCGCCGGCUGGGCAACACUCCGAGGGGACCGUCCCCUCGAUAAUGGCGAAUGGGACCCA [U46C G68A]
Response: Satisfied

Request: Threshold query (self-cleavage >= 0.4) on GGCCGGCAUGGUCCCAGCCUCCUCGCUGGCGCCGGCUGGGCAACAUUCCGAGGGGACCGUACCCUAGGUAAUGGCGAAUGGGACCCA [C61A C66A]
Response: Satisfied

Request: Threshold query (self-cleavage >= 0.4) on GGCCGGCAUGGUCCCAGCCUCCUCGCUGGCGCCGGCUAGGCAACAUUCCGAGGAGACCGUCCCCUCGGUAAUGGCGAAUGGGACCCA [G38A G54A]
Response: Not satisfied

Request: Threshold query (self-cleavage >= 0.4) on GGCAGGCAUGGUCCCAGCCUCCUCGCUGGCGCCGGCUGGGCAACAUUCCGAGGGGACCGUCCCCUCGGUAAUGGCGAAUGGGGCCCA [C4A A83G]
Response: Not satisfied

Request: Threshold query (self-cleavage >= 0.4) on GGCCGGCAUGGUCCCAGCCACCUCGCUGGCGCCGGCUGGGCAACAUUCCGAGGGGACCGUCCCCUCCGUAAUGGCGAAUGGGACCCA [U20A G67C]
Response: Not satisfied

Request: Threshold query (self-cleavage >= 0.4) on GGCCGGCAUGGUCCCAGCCUCCUCGCUGGCGCCGGCUGGGCAACAUUUCGAGGGGAUCGUCCCCUCGGUAAUGGCGAAUGGGACCCA [C48U C57U]
Response: Satisfied

Request: Threshold query (self-cleavage >= 0.4) on GGCCGGCAUAGUCCCAGCCUCCUCGCUGGCGCCGGCUGGGCAACAUUCCGAGGGGACCGUCCCCUCGGUAAUGACGAAUGGGACCCA [G10A G74A]
Response: Not satisfied

Request: Threshold query (self-cleavage >= 0.4) on GGCCGGCAUGGUCCCAGCCUCCUCGCUGGCUCCGGCUGGGCAACAUUCCGAGGGGACCGUCCCCUCGUUAAUGGCGAAUGGGACCCA [G31U G68U]
Response: Satisfied

Request: Threshold query (self-cleavage >= 0.4) on GGCCAGCAUGGUCCCAGCCUCCUCGCUGGCGCCGGCUGGGCGACAUUCCGAGGGGACCGUCCCCUCGGUAAUGGCGAAUGGGACCCA [G5A A42G]
Response: Not satisfied

Request: Threshold query (self-cleavage >= 0.4) on GGCCGGCAUGGUCCCAGCCUCCUCUCUGGCGCCGGCUGGGCAACAUUCCGAGGGGACCGUCCCCUCGGUAAUGGCGAAGGGGACCCA [G25U U79G]
Response: Not satisfied

Request: Threshold query (self-cleavage >= 0.4) on GGCCGGCCUGGUCCCAGCCUCCUCGCUGGCGCCGGCUGGGCAACAUUCCGAGGGGACCGUCCCUUCGGUAAUGGCGAAUGGGACCCA [A8C C64U]
Response: Satisfied

Request: Threshold query (self-cleavage >= 0.4) on GGCCGGCAUGGUCCCAGCCUCAUCGCUGGCGCCGGCUGGGCAACAUUCCGAGGGGUCCGUCCCCUCGGUAAUGGCGAAUGGGACCCA [C22A A56U]
Response: Not satisfied

Request: Threshold query (self-cleavage >= 0.4) on GGCCGGCAUGGUCCCAGCCUCCACGCUGGCGCCGGCUGGGCAACAUUCCGAGGGGACCGUCCCCUCGUUAAUGGCGAAUGGGACCCA [U23A G68U]
Response: Satisfied

Request: Threshold query (self-cleavage >= 0.4) on GGCCGGCAUUGUCCCAGCCUCCUCGCUGGCGCCGGCUGGGCAACAUUCCGAGGGGACCGUGCCCUCGGUAAUGGCGAAUGGGACCCA [G10U C61G]
Response: Satisfied

Request: Threshold query (self-cleavage >= 0.4) on GGCCGGCAUGGUCCCAGCCACCUCGCUAGCGCCGGCUGGGCAACAUUCCGAGGGGACCGUCCCCUCGGUAAUGGCGAAUGGGACCCA [U20A G28A]
Response: Not satisfied

Data origin: the RNAGym collection of RNA variant scans (doi:10.7554/elife.80360)
